Source: ChEMBL document CHEMBL1212900

experiment: Inhibition of Plasmodium falciparum falcipain-3 expressed in Escherichia coli
Values of IC50 strictly less than 0.07 µM map to satisfied, and values of at least 0.07 µM map to not satisfied.

Request: Does COCc1cnc(C#N)nc1N(CC(C)C)NC(=O)OC(C)(C)C have IC50 strictly under 0.07 µM?
Response: not satisfied

Request: I'd appreciate it if you could check whether CN1CCN(Cc2ccc(C(=O)NN(CC3CC3)c3nc(C#N)ncc3Br)cc2)CC1 has IC50 smaller than 0.07 µM.
Response: not satisfied

Request: Strictly below 0.07 µM: is that where IC50 of CC(C)CN(NC(=O)c1cc2cc(CN3CCN(C)CC3)ccc2o1)c1nc(C#N)ncc1Br sits?
Response: satisfied

Request: Please check: IC50 for CC(C)CN(NC(=O)Cc1ccc(OCCN2CCOCC2)cc1)c1nc(C#N)ncc1Br , strictly under 0.07 µM or not?
Response: satisfied

Request: In plain terms, does CC(C)CN(c1nc(C#N)ncc1Br)N(CCCN1CCN(C)CC1)C(=O)c1ccccc1 come in under 0.07 µM for IC50?
Response: not satisfied

Request: Determine if CC(C)CN(NC(=O)c1ccc2nccnc2c1)c1nc(C#N)ncc1Br shows IC50 strictly lower than 0.07 µM.
Response: not satisfied

Request: Decide: IC50 of CC(C)N(NC(=O)c1ccc(CN2CCN(C)CC2)cc1)c1nc(C#N)ncc1Br strictly below 0.07 µM?
Response: not satisfied

Request: Just wondering, is IC50 of CC(C)CN(NC(=O)c1ccc2ccccc2c1)c1nc(C#N)ncc1Br below 0.07 µM?
Response: not satisfied

Request: Does the reported IC50 of the following molecule sit strictly below 0.07 µM? CN1CCN(Cc2ccc(C(=O)NN(c3nc(C#N)ncc3Br)C3CCCC3)cc2)CC1
Response: satisfied

Request: Check if IC50 falls below 0.07 µM for CC(C)CN(NC(=O)c1cc2ccccc2s1)c1nc(C#N)ncc1Br .
Response: not satisfied

Request: IC50 strictly < 0.07 µM for this molecule? CC(C)CN(NC(=O)c1ccc(-c2cccc(CN3CCN(C)CC3)c2)nc1)c1nc(C#N)ncc1Br
Response: satisfied

Request: Input CC(C)CN(c1nc(C#N)ncc1Br)N(CCCN1CCN(C)CC1)C(=O)c1ccc(F)cc1 ; condition: IC50 strictly below 0.07 µM. Does it hold?
Response: not satisfied

Request: Hello, is IC50 of the following molecule strictly smaller than 0.07 µM? CC(C)CN(NC(=O)c1nc2ccccc2s1)c1nc(C#N)ncc1Cl
Response: not satisfied

Request: is_below(IC50, 0.07 µM) for CC(C)CN(NC(=O)c1ccc(Oc2ccccc2)cc1)c1nc(C#N)ncc1Br ?
Response: not satisfied

Request: Field: below-cutoff. Rule: recorded IC50 strictly less than 0.07 µM. Subject: CC(C)CN(NC(=O)c1csc(-c2ccccc2)n1)c1nc(C#N)ncc1Cl
Response: satisfied

Request: # TODO verify IC50 < 0.07 µM strictly for this molecule: CC(C)CN(NC(=O)OC(C)(C)C)c1nc(C#N)ncc1C(F)(F)F
Response: satisfied

Request: Find out if reported IC50 for CC(C)CN(NC(=O)c1cc(-c2ccccc2)no1)c1nc(C#N)ncc1Cl is less than 0.07 µM
Response: not satisfied

Request: Does the reported IC50 of CC(C)(C)OC(=O)NN(c1nc(C#N)ncc1Br)C1CC=CC1 stay below 0.07 µM?
Response: satisfied

Request: Given CC(C)CN(NC(=O)c1ccc(-c2ccccc2)nc1)c1nc(C#N)ncc1Br , is recorded IC50 strictly lower than 0.07 µM?
Response: not satisfied
